# study.target: T1, TRCW5 antigen (CD3δε-Fc-Avi) (biotinylated (site not stated))
# T1 construct: also called recombinant CD3
# T1 sequence (chain, as listed by the source mutant limits assumed): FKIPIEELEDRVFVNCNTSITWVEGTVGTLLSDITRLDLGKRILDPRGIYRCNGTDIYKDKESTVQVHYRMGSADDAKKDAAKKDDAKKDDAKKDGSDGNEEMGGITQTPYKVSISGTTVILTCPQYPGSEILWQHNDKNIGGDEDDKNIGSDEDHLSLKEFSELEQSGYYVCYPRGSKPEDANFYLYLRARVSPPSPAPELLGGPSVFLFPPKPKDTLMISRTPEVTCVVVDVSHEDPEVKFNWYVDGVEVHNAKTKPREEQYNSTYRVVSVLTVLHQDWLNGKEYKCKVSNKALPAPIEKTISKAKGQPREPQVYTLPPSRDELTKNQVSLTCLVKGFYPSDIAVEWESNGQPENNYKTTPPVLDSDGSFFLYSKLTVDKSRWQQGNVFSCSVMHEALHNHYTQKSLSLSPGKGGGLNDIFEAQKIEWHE
# protocol.description: binding after heat

| binder | % Retained 55° C. [%] |
| --- | --- |
| CD3B2030 N106K (scFv) scFv: QVQLVQSGAEVKKPGSSVKVSCKASGYTFTRSTMHWVKQAPGQGLEWIGYINPSSAYTNYNQKFQGRVTLTADKSTSTAYMELSSLRSEDTAVYYCASPQVHYDYKGFPYWGQGTLVTVSSGGSEGKSSGSGSESKSTGGSEIVLTQSPATLSASPGERVTLSCSASSSVSYMNWYQQKPGQAPRRWIYDSSKLASGVPARFSGSGSGRDYTLTISSLEPEDFAVYYCQQWSRNPPTFGGGTKVEIK | 99.7 |
| CD3B2051 N106H (scFv) scFv: QVQLVQSGAEVKKPGSSVKVSCKASGYTFTRSTMHWVKQAPGQGLEWMGYINPSSAYTNYNQKFQGRVTLTADKSTSTAYMELSSLRSEDTAVYYCASPQVHYDYHGFPYWGQGTLVTVSSGGSEGKSSGSGSESKSTGGSEIVLTQSPATLSASPGERVTLSCSASSSVSYMNWYQQKPGQAPRRLIYDSSKLASGVPARFSGSGSGRDYTLTISSLEPEDFAVYYCQQWSRNPPTFGGGTKVEIK | 103 |
| CD3B2051 N106K (scFv) scFv: QVQLVQSGAEVKKPGSSVKVSCKASGYTFTRSTMHWVKQAPGQGLEWMGYINPSSAYTNYNQKFQGRVTLTADKSTSTAYMELSSLRSEDTAVYYCASPQVHYDYKGFPYWGQGTLVTVSSGGSEGKSSGSGSESKSTGGSEIVLTQSPATLSASPGERVTLSCSASSSVSYMNWYQQKPGQAPRRLIYDSSKLASGVPARFSGSGSGRDYTLTISSLEPEDFAVYYCQQWSRNPPTFGGGTKVEIK | 116 |
| CD3B2030 N106A (scFv) scFv: QVQLVQSGAEVKKPGSSVKVSCKASGYTFTRSTMHWVKQAPGQGLEWIGYINPSSAYTNYNQKFQGRVTLTADKSTSTAYMELSSLRSEDTAVYYCASPQVHYDYAGFPYWGQGTLVTVSSGGSEGKSSGSGSESKSTGGSEIVLTQSPATLSASPGERVTLSCSASSSVSYMNWYQQKPGQAPRRWIYDSSKLASGVPARFSGSGSGRDYTLTISSLEPEDFAVYYCQQWSRNPPTFGGGTKVEIK | 111 |

Origin of measurements: patent US20250145711A1
